# Assay Info: Drug level in mouse brain at 5 mg/kg, iv after 1 hr
# Assay type: ADME, organism-based
# Set-up: dose 5 mg/kg, route intravenous
# Settings: read-out: Drug uptake

Test Smiles: CC(C)C[C@H](NCCN)c1cccc(F)c1N1CCN(C(=O)[C@@H](Cc2ccc(Cl)cc2Cl)N2CCCC2=O)CC1
concentration at 1 h / ng/g: 63

###

# Assay Info: Ratio of drug level in brain to plasma in mouse at 5 mg/kg, iv after 1 hr
# Format: ADME, organism-based
# Design: dose 5 mg/kg, route intravenous
# Settings: read-out: BPR

Test Smiles: CC(C)C[C@H](NCCN)c1cccc(F)c1N1CCN(C(=O)[C@@H](Cc2ccc(Cl)cc2Cl)N2CCCC2=O)CC1
Kp at 1 h: 0.14

###

# Assay Info: Volume of distribution in mouse at 5 mg/kg, iv
# Assay type: ADME, organism-based
# Design: dose 5 mg/kg, route intravenous
# Settings: in vivo

Test Smiles: CC(C)C[C@H](NCCN)c1cccc(F)c1N1CCN(C(=O)[C@@H](Cc2ccc(Cl)cc2Cl)N2CCCC2=O)CC1
Vd [L/kg]: 13

###

# Assay Info: Permeability from basolateral to apical side of the Caco-2 cell membrane
# Type: ADME, cell-based
# Settings: human, read-out: permeability

Test Smiles: CC(C)C[C@H](NCCN)c1cccc(F)c1N1CCN(C(=O)[C@@H](Cc2ccc(Cl)cc2Cl)N2CCCC2=O)CC1
Papp B→A [×10⁻⁶ cm/s]: 6.7

###

# Assay Info: Cmax in mouse at 10 mg/kg, po after 2 hrs
# Format: ADME, organism-based
# Set-up: dose 10 mg/kg, route oral
# Settings: in vivo
Property Label: Cmax (ng/mL)

Test Smiles: CC(C)C[C@H](NCCN)c1cccc(F)c1N1CCN(C(=O)[C@@H](Cc2ccc(Cl)cc2Cl)N2CCCC2=O)CC1
Property Label: Cmax
Numeric Readout: 552

###

# Assay Info: Half life in mouse at 5 mg/kg, iv
# Type: ADME, organism-based
# Set-up: dose 5 mg/kg, route intravenous
# Settings: in vivo

Test Smiles: CC(C)C[C@H](NCCN)c1cccc(F)c1N1CCN(C(=O)[C@@H](Cc2ccc(Cl)cc2Cl)N2CCCC2=O)CC1
Unit Descriptor: h
half-life: 10

###

# Assay Info: Drug level in mouse brain at 5 mg/kg, iv after 4 hrs
# Type: ADME, organism-based
# Set-up: dose 5 mg/kg, route intravenous
# Settings: read-out: Drug uptake

Test Smiles: CC(C)C[C@H](NCCN)c1cccc(F)c1N1CCN(C(=O)[C@@H](Cc2ccc(Cl)cc2Cl)N2CCCC2=O)CC1
Unit Descriptor: ng/g
concentration at 4 h: 53

###

# Assay Info: Oral bioavailability in mouse at 10 mg/kg, po
# Assay type: ADME, organism-based
# Settings: in vivo
Property Label: bioavailability (%)

Test Smiles: CC(C)C[C@H](NCCN)c1cccc(F)c1N1CCN(C(=O)[C@@H](Cc2ccc(Cl)cc2Cl)N2CCCC2=O)CC1
Property Label: bioavailability
Numeric Readout: 19.5

###

# Assay Info: AUC in mouse at 5 mg/kg, iv
# Format: ADME, organism-based
# Parameters: dose 5 mg/kg, route intravenous
# Settings: plasma

Test Smiles: CC(C)C[C@H](NCCN)c1cccc(F)c1N1CCN(C(=O)[C@@H](Cc2ccc(Cl)cc2Cl)N2CCCC2=O)CC1
AUC (ng·h/mL): 9980

Each recorded value in this set is attributed to ChEMBL document CHEMBL1137470.
